# test-details: CelltiterGlo viability cell assay
# Type: cell-based
# reported-conditions: human, HCC1143 breast cancer cells, HCC1143, 3 day, 30 uM; read-out: viability Average
# Text: Supplementary Figure 13. […] Viability of (a) Multiple Myeloma lines and (b) Breast Cancer cell lines following 3 or 6 days treatment with […] manufacturer’s instructions as described in the Supplementary methods. Data are normalized to DMSO control. N=3 biological replicates, +/- SEM. Source data are provided as a Source Data […] CelltiterGlo viability cell assay […]

| compound | viability at 3 day, 30 µM |
| --- | --- |
| COc1cc(OC)cc(-c2noc(N3CCN(C)C4(CCN(c5ccnc(C)c5)CC4)C3)n2)c1 [MRK-740] | 25.7% |
